Assay: qHTS of pediatric cancer cell lines to identify multiple opportunities for drug repurposing: Confirmatory screen for Rh18 cells (AID 1347125);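 further: cells exposed to compound for 48 h; nearly all actives have a fitted effect of over 55% in size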
Conditions: Rh18 rhabdomyosarcoma cells, viability; series mostly up to 45.9 µM
Records with an inconclusive call do not appear. Active and inactive are the calls of the source. The call rests on the fitted dose curve; in most records, active means well fitted cell-killing curve with a large enough effect; inconclusive means small, poorly fitted or top-dose-only effect, or effect the other way; inactive means flat fitted curve, though single readings scatter.
Can you answer with just one of these options? TRUE = active, FALSE = inactive

Completed entries (count: 10):
{"MOLECULE": "O=C1C(I)=CC(=C(c2cc(I)c(O)c(I)c2)c2ccccc2C(=O)O)C=C1I", "LABEL_CLASS": "FALSE"}
{"MOLECULE": "C[C@H]1CCCC=CC2C[C@H](O)C[C@@H]2[C@H](O)C=CC(=O)O1 (stereo not given in full)", "LABEL_CLASS": "TRUE"}
{"MOLECULE": "CC[C@H]1C=CC=CC[C@@H](C)[C@H](O)[C@@](C)(O)C(=O)[C@@H](C)[C@H](O)[C@@H](C)C(=O)[C@@H](C)[C@H](O)[C@@H](C)C=CC(=O)O[C@@H]2[C@@H](C)[C@H](CC1)O[C@]1(CC[C@H](C)[C@H](C[C@@H](C)O)O1)[C@H]2C", "LABEL_CLASS": "FALSE"}
{"MOLECULE": "O=[N+]([O-])c1c(Cl)c(Cl)cc(Cl)c1Cl", "LABEL_CLASS": "FALSE"}
{"MOLECULE": "CC=C(C)C(=O)O[C@H]1C(C)=C2[C@@H]3OC(=O)[C@@](C)(O)[C@@]3(O)[C@@H](OC(=O)CCC)C[C@](C)(OC(C)=O)[C@@H]2[C@@H]1OC(=O)CCCCCCC", "LABEL_CLASS": "FALSE"}
{"MOLECULE": "CC(C)(O)C=CC(=O)[C@](C)(O)[C@H]1[C@H](O)C[C@]2(C)[C@@H]3CC=C4[C@@H](C=C(O)C(=O)C4(C)C)[C@]3(C)C(=O)C[C@@]12C", "LABEL_CLASS": "TRUE"}
{"MOLECULE": "CC[C@@]1(O)C(=O)OCc2c1cc1n(c2=O)Cc2cc3ccccc3nc2-1", "LABEL_CLASS": "TRUE"}
{"MOLECULE": "CS(=O)(=O)c1ccc(C(=O)C2C(=O)CCCC2=O)c([N+](=O)[O-])c1", "LABEL_CLASS": "FALSE"}
{"MOLECULE": "Cc1ccccc1-n1c(Cn2cnc3c(N)ncnc32)nc2cccc(C)c2c1=O", "LABEL_CLASS": "FALSE"}
{"MOLECULE": "O=c1[nH]c2ccc(Cl)cc2c(N[C@@H]2CN3CCC2CC3)c1-c1nc2ccccc2[nH]1", "LABEL_CLASS": "TRUE"}

Hello, I am checking results. What call was entered for C[C@@]12OC(=O)[C@]1([C@@H](O)[C@@H]1C=CCCC1)NC(=O)[C@H]2CCCl ?
TRUE

Name the outcome recorded for O=C(O)CCCOc1ccc(Cl)cc1Cl in the assay.
FALSE

Give the logged outcome of this assay for the following molecule: C[C@@H]1CC[C@@]2(OC1)O[C@H]1C[C@H]3[C@@H]4CC=C5C[C@@H](O[C@@H]6O[C@H](CO)[C@@H](O[C@@H]7O[C@@H](C)[C@H](O)[C@@H](O)[C@@H]7O)[C@H](O)[C@@H]6O[C@@H]6O[C@@H](C)[C@H](O)[C@@H](O)[C@@H]6O)CC[C@]5(C)[C@@H]4CC[C@]3(C)[C@@H]1[C@H]2C
TRUE

In this assay, the call recorded for CC(C)N[C@@H]1CCn2c(=O)[nH]c3cccc(c32)[C@@H]1O was what?
FALSE

Kindly provide the recorded test outcome for the following molecule: CC(=O)[O][Hg][c]1ccccc1
TRUE

###

Experiment: Cellular Toxicity (caspase-3) HUV-EC-C (AID 656);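 further: cells exposed to compound for 16 h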
Details: HUV-EC-C cells, caspase-3 activation (apoptosis), vehicle = 0, 100 µM tamoxifen = 100%; series mostly up to 92.2 µM
Calls of active or inactive are those of the source. The call rests on the fitted dose curve; in most records, active means well fitted curve in the direction sought with a large enough effect; inconclusive means small, poorly fitted or top-dose-only effect, or another doubt; inactive means no such curve, though single readings can be large or run the other way.
OUTCOME_MEASURE: outcome

{"RECORD_SMILES": "CC(C)(O)C(=O)Nc1ccc([N+](=O)[O-])c(C(F)(F)F)c1", "outcome": "inactive"}
{"RECORD_SMILES": "O=C(O)C(Cl)Cl", "outcome": "inactive"}
{"RECORD_SMILES": "O=[N+]([O-])c1c(Cl)c(Cl)cc(Cl)c1Cl", "outcome": "inactive"}
{"RECORD_SMILES": "O=[N+]([O-])c1c2ccccc2cc2ccccc12", "outcome": "inactive"}

Answer for every listed entry: what is its outcome? The entries follow.
1. COc1ccc(C(c2ccc(OC)cc2)C(Cl)(Cl)Cl)cc1
2. Nc1ccc(Cl)cc1
3. C1CCC(NC2CCCCC2)CC1
4. CCCCOC(=O)c1ccccc1C(=O)OCc1ccccc1
5. CCCCCCCCc1ccc(O)cc1
6. Cc1cc(O)ccc1Cl
7. OCCCBr
8. Nc1ccc(Cl)cc1N

1. inactive
2. inactive
3. inactive
4. inactive
5. inactive
6. inactive
7. inactive
8. inactive

Hi! Can you tell me outcome for each of these compounds?
1. CN(C)[C@@H]1C(=O)C(C(N)=O)=C(O)[C@@]2(O)C(=O)C3=C(O)c4c(O)cccc4[C@@](C)(O)[C@H]3[C@H](O)[C@@H]12
2. Nc1ccc([N+](=O)[O-])cc1

["inactive", "inactive"]

###

Assay: qHTS of pediatric cancer cell lines to identify multiple opportunities for drug repurposing: Primary screen for Rh41 cells (AID 1347108); further: nearly all actives have a fitted effect of over 70% in size
Settings: Rh41 rhabdomyosarcoma viability, CellTiter-Glo luminescence, 48 h; series mostly up to 46 µM
Records with an inconclusive call do not appear. Activity calls are given as the source filed them. Calls come from the whole dose curve; as a rule, active = well fitted cell-killing curve with a large enough effect; inconclusive = small, poorly fitted or top-dose-only effect; inactive = no such curve, though single readings can be large or run the other way.
Assign a class; possible classes are Y = active, N = inactive

Consider the following illustrative entries.
{"COMPOUND": "COc1cccc2c1[C@]13CCN(CC4CC4)[C@H](C2)[C@]1(OC)CCC(=O)C3", "LABEL_CLASS": "N"}
{"COMPOUND": "O=[N+]([O-])c1ncc[nH]1", "LABEL_CLASS": "N"}
{"COMPOUND": "COC1=C[C@@H]2[C@@H]3Cc4ccc(OC)c(O)c4[C@]2(CCN3C)CC1=O", "LABEL_CLASS": "Y"}

Please let me know the test result on file for CCC(=O)OC1CCC2C3CCC4=CC(=O)CC[C@@]4(C)C3CC[C@]12C (stereo partly specified) .
N

Query: recorded result category for Cc1ccc(Cl)c(O)c1 in this test
N

Given Cc1ccccc1-n1c(Cn2cnc3c(N)ncnc32)nc2cccc(C)c2c1=O , state the outcome it received in this test.
Y

What call does the record list for CC[N+]1(CCOC(=O)C(O)(c2ccccc2)c2ccccc2)CCCCC1 ?
N

Hi, do you know how CCC(=O)O[C@@H]1C=C2CCC3C(CCC4(C)C3CC[C@@H]4OC(=O)CC)C2CC1 (stereo partly specified) came out in this test?
N

Dear colleague, could you share the recorded outcome for O=C(Oc1ccc([N+](=O)[O-])cc1)N1CCN(Cc2cccc(Oc3ccccc3)c2)CC1 when you have a moment?
N

# fetch the recorded call for CC(C)(C)NC[C@H](O)c1ccc(O)cc1Cl here
N

Call for entry CC1(N2CCC(n3c([C@@H]4CCCNC4)nc4ccccc43)CC2)CCCCCCC1 :
N

###

Test: Quantitative High-Throughput drug screen in 47 multiple myeloma cell lines against the NCATS MIPE library collection: KMS27_JCRB cell viability assay (AID 1918970); further: nearly all actives have a fitted effect of over 30% in size
Settings: KMS27 myeloma cells, CellTiter-Glo ATP viability, 48 h; series mostly up to 45.8 µM
Inconclusive results are not listed. Active and inactive are the calls of the source. Calls follow the shape of the dose curve; as a rule, active = well fitted cell-killing curve with a large enough effect; inconclusive = small, poorly fitted or top-dose-only effect, or effect the other way; inactive = no such curve, though single readings can be large or run the other way.
Thanks in advance; please answer with one of these: active, inactive

Here are 3 compounds together with their reported answers.
{"COMPOUND": "CN(C)NC(=O)CCC(=O)O", "LABEL_CLASS": "inactive"}
{"COMPOUND": "C[C@@]12OC(=O)[C@]1([C@@H](O)[C@@H]1C=CCCC1)NC(=O)[C@H]2CCCl", "LABEL_CLASS": "active"}
{"COMPOUND": "O=C(Oc1ccc([N+](=O)[O-])cc1)N1CCN(Cc2cccc(Oc3ccccc3)c2)CC1", "LABEL_CLASS": "inactive"}

Assay outcome for CC1=C(O)C(=O)C=C2C1=CC=C1[C@@]2(C)CC[C@@]2(C)[C@@H]3C[C@](C)(C(=O)O)CC[C@]3(C)CC[C@]12C : what was it?
active

Which outcome was entered for the compound O=C(Nc1ccncc1)C(=O)c1cn(Cc2ccc(Cl)cc2)c2ccccc12 in this test?
active

Please let me know the test result on file for COc1ccc2c(c1)[C@]13CCCCC1C(C2)N(C)CC3 (some centres undefined) .
inactive

Called result for CCNC(=O)C[C@@H]1N=C(c2ccc(Cl)cc2)c2cc(OC)ccc2-n2c(C)nnc21
active

Query: recorded result category for Cc1nc(-c2ccc(-c3ccc(C(=O)N4CCc5cc6c(cc54)C4(CCN(C)CC4)CO6)cc3)c(C)c2)no1 in this test
inactive

I would be grateful if you could indicate the recorded call for Clc1ccccc1C(c1ccccc1)(c1ccccc1)n1cccn1 .
inactive

Entry source: PubChem BioAssay (NCATS)
